- assay target: human PDE5, partially purified from human platelets (Homo sapiens, UniProt O76074)
- Construct: human PDE5, partially purified from human platelets; from tissue; host or cells: human platelets
- assay: PDE5 Assay (SPA, 3H-cGMP)
- Type: biochemical
experimental endpoint: IC50 (nM)
Numbers only, in nM.

// solved cases for IC50 follow
{"columns": ["molecule", "numeric readout"],
 "data": [
  ["COc1cc2cncc(Cc3nc4c([nH]3)c(=O)n(C)c(=O)n4CC(C)CO)c2cc1OC (centres unmarked)", 7],
  ["COc1cc2cncc(Cc3nc4c([nH]3)c(=O)n(C)c(=O)n4CC(C)(C)C)c2cc1OC", 6]
]}

Look at each molecule and report its IC50.
1. COc1cc2c(Cc3nc4c([nH]3)c(=O)n(C)c(=O)n4CC(C)C)cnc(C)c2cc1OC
2. COc1cc2cncc(Cc3nc4c([nH]3)c(=O)n(C)c(=O)n4CC(C)C)c2cc1OC
3. COc1ccc2cncc(Cc3nc4c([nH]3)c(=O)n(C)c(=O)n4CC(C)C)c2c1

output:
1: 7; 2: 10; 3: 2

###

- assay target: human PDE5, partially purified from human platelets (Homo sapiens, UniProt O76074)
- Construct: human PDE5, partially purified from human platelets; from tissue; host or cells: human platelets
- assay: PDE5 Assay (SPA, 3H-cGMP)
- Assay type: biochemical
- reported conditions: human platelet PDE5, 3H-cGMP, room temperature 1 hour, yttrium silicate SPA beads; read-out: IC50 (concentration of test compound at which 50% inhibition of PDE5 binding to the beads occurs)
hey, just use Criterion met if measured IC50 is less than 9 nM, otherwise Criterion not met

{"columns": ["molecule smiles", "assay target", "class label"],
 "data": [
  ["C#Cc1ccc2cncc(Cc3nc4c([nH]3)c(=O)n(C)c(=O)n4CC(C)C)c2c1", "human PDE5, partially purified from human platelets (Homo sapiens, UniProt O76074)", "Criterion met"]
]}

input: A record lists COc1cc2c(Cc3nc4c([nH]3)c(=O)n(C)c(=O)n4CC(C)C)cnc(Cl)c2cc1OC . Is its IC50 below 9 nM?
output: Criterion not met

input: Take the molecule COc1ccc2cncc(Cc3nc4c([nH]3)c(=O)n(C)c(=O)n4CC3CC3)c2c1 and say whether its IC50 is less than 9 nM.
output: Criterion met

input: Dear colleague, could you confirm whether IC50 of COc1cc2cncc(Cc3nc4c([nH]3)c(=O)n(C)c(=O)n4Cc3ccc(NS(=O)(=O)N(C)C)cc3)c2cc1OC falls below 9 nM? Thanks.
output: Criterion met
